Origin of values: patent US20250262170A1

- target-or-system: human β3-adrenergic receptor (Homo sapiens, UniProt P13945)
- Construct: expressed in transfected cells
- Sequence (P13945 whole entry): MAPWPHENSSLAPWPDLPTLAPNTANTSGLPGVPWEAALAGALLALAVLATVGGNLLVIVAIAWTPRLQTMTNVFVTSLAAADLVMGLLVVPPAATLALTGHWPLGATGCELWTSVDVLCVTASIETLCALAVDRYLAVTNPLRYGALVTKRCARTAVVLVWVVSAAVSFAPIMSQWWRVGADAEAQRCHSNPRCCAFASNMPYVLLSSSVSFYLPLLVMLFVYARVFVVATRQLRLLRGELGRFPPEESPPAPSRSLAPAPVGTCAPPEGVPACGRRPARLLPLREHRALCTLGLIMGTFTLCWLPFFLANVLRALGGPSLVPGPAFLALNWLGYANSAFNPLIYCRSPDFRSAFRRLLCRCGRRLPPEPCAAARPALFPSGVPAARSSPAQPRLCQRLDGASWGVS
- protocol-text: cAMP levels in CHO-K1 cells expressing the human β3-adrenergic receptor
- Format: cell-based
- conditions-used: CHO-K1, 0.25 h, 15 min, read-out: Activity (intracellular cAMP compared to that of isoproterenol)
- Protocol: CHO-K1 cells stably expressing the human β3-adrenergic receptors were serum-starved overnight and stimulated with an agonist, final concentration 1×10^−5 M, for 15 min in stimulation buffer (HBSS supplemented with 1% BSA, 5 mM HEPES and 1 mM IBMX, pH 7.4) The medium was then aspirated and to end the reaction, 100 μL of 95% EtOH was added to each well of the 24-well plate and cells were kept at −20° C. overnight. […]
Can you tell me Emax at 10 µM for the items I'm about to list?

Could you report Emax at 10 µM for every entry in the following list?
1. CO[C@H]1CC[C@H](C[C@H]2CC[C@H]([C@H](O)c3ccccc3F)N2)CC1 [Compound 48]
2. CNC(=O)N1CCC[C@@H](CC(C)(C)NC[C@H](O)c2cccc(F)c2)C1 [Compound 3]
3. CCS(=O)(=O)N[C@H]1CC[C@H](CC(C)(C)NC[C@H](O)c2cncc(F)c2)CC1 [Compound 21]
4. CCOC(=O)CO[C@H]1CC[C@H](C(C)(C)NC[C@H](O)c2cccc(F)c2)CC1 [Compound 41]
5. CCCCS(=O)(=O)N[C@H]1CC[C@@H](CC(C)(C)NC[C@H](O)c2cccc(F)c2)CC1 [Compound 12]
6. CC(C)CS(=O)(=O)N[C@H]1CC[C@@H](CC(C)(C)NC[C@H](O)c2cncc(F)c2)CC1 [Compound 14]
7. CCCCNC[C@H](O)c1ccccc1F [Compound 64]
8. CC(C)(C[C@H]1CC[C@H](NS(=O)(=O)C2CC2)CC1)NC[C@H](O)c1cccc(F)c1 [Compound 25]

Result:
1. 50 to 75%
2. > 75%
3. > 75%
4. > 75%
5. > 75%
6. 50 to 75%
7. > 75%
8. > 75%

----------
- target-or-system: human β3-adrenergic receptor (Homo sapiens, UniProt P13945)
- Construct: expressed in transfected cells
- protocol-text: cAMP levels in CHO-K1 cells expressing the human β3-adrenergic receptor
- Format: cell-based
- conditions-used: CHO-K1, 0.25 h, 15 min, read-out: Activity (intracellular cAMP compared to that of isoproterenol)
Hi there, I'd appreciate the recorded Emax at 10 µM for every entry that follows.

I would be grateful if you could provide Emax at 10 µM for each of the following entries.
1. CC(C)(CC[C@H]1CC[C@H](O)CC1)NC[C@H](O)c1ccccc1F
2. CC(C)(C[C@H]1CC[C@H](NS(=O)(=O)C(F)(F)F)CC1)NC[C@H](O)c1cccc(F)c1
3. COCC12CC(C1)[C@H]([C@H](O)c1cccc(F)c1)N2
4. COC(=O)N1CCC[C@@H](CC(C)(C)NC[C@H](O)c2cccc(F)c2)C1
5. CC(C)(C)NC[C@H](O)c1ccc(F)c(N)c1F
6. CCC[C@@H](C)NC[C@H](O)c1cccc(F)c1

Result:
["> 75%", "> 75%", "50 to 75%", "> 75%", "> 75%", "> 75%"]

// each compound listed below needs its Emax at 10 µM
1. CC1(NC[C@H](O)c2cccc(O)c2)CCC1
2. CCCCNCC(O)c1ccc(F)c(N)c1F (stereo not drawn)
3. CNS(=O)(=O)[C@H]1CC[C@H](CC(C)(C)NC[C@H](O)c2cccc(F)c2)CC1

Result:
["> 75%", "50 to 75%", "> 75%"]
